- assay target: Protease (Human immunodeficiency virus 1, UniProt Q9YQ12, L90M)
- Sequence (Q9YQ12 entry or part of it L90M): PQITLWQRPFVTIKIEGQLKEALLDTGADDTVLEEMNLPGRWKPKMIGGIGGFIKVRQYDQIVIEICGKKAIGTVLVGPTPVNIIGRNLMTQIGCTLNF
- assay: Binding affinity to HIV1 protease L90M mutant

compound: CC[C@H](C)CN(C[C@@H](O)C(Cc1ccccc1)N(C(=O)OC)[C@H]1CCC(=O)N1)S(=O)(=O)c1cccc2ncsc12 (stereo partly specified)
value units: nM
Ki: 21.1

###

- assay: Aqueous solubility of the compound at pH 5.4
- Format: physicochemical

molecule: COc1cnc(OC)c2c1c(C(=O)C(=O)N1CCN(C(=O)c3ccccc3)CC1)cn2COP(=O)(O)O.NCCCC[C@H](N)C(=O)O
solubility: > 12 mg/mL

###

- Test system: Human immunodeficiency virus 1
- assay: Antiviral activity against HIV1 NL4-3 X4 infected in human MT4 cells assessed as suppression of viral replication after 5 days by MTT assay
- Type: functional, organism-based
- assay context: Human immunodeficiency virus 1, NL4-3 X4, MT4, 120 h

compound: Oc1cccc(CN(CCN2CCCCC2)CC2CCCN(C3CCCC3)C2)c1 (stereo unspecified)
assay target: Human immunodeficiency virus 1
EC50, nM: 1500

###

- assay target: Protease (Human immunodeficiency virus 1, UniProt Q9YQ12, V82A)
- Sequence (Q9YQ12 entry or part of it V82A): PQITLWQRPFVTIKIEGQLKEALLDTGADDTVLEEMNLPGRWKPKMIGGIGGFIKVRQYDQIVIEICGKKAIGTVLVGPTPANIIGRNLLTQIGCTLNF
- assay: Binding affinity to HIV1 protease V82A mutant
pKi: −log10 of the molar value.

compound: CC[C@H](C)CN(C[C@@H](O)C(Cc1ccccc1)N(C(=O)OC)[C@H]1CCC(=O)N1)S(=O)(=O)c1cccc2ncsc12 (stereo partly specified)
pKi: 7.68
